- study-system: UniProtKB P08575
- Sequence (P08575 whole entry): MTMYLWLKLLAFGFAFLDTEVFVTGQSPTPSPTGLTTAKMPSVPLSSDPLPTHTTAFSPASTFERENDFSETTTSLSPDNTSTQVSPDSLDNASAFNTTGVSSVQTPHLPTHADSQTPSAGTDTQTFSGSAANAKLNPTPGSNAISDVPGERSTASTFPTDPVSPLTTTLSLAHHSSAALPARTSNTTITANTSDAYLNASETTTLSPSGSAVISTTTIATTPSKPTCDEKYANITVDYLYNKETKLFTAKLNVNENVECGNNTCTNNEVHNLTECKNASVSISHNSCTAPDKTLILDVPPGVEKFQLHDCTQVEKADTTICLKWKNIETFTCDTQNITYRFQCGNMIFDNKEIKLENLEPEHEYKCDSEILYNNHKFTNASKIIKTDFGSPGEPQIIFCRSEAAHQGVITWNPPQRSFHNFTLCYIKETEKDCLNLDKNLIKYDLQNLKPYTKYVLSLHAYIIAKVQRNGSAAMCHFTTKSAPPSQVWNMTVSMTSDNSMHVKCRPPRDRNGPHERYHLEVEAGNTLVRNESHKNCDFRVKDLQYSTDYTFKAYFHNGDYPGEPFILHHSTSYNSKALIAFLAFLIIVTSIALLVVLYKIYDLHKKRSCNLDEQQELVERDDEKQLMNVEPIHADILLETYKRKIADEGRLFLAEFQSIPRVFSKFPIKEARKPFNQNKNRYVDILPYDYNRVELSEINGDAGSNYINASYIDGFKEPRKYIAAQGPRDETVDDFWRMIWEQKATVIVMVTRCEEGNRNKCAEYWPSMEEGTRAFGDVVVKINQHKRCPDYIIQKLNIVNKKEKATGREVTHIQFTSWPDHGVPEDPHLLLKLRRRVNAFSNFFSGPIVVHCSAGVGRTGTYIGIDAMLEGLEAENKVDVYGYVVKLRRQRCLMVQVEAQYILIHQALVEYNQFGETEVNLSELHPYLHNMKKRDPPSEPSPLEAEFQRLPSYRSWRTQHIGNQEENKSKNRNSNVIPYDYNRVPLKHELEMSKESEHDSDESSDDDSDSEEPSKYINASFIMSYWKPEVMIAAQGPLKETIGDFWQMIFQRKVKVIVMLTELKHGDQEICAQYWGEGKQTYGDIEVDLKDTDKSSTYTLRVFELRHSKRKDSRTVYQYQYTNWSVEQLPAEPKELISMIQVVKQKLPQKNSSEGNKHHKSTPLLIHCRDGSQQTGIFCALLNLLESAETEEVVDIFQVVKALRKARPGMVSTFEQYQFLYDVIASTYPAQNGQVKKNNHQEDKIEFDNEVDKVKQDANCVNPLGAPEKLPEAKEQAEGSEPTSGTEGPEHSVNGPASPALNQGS
endpoint-label: pIC50
In plain terms, pIC50 is the concentration in mol/L turned into minus its base-10 logarithm.

Measured pIC50 of `O=C(CCCn1cc(-c2c(-c3ccccc3)oc3cc(O)c(C(=O)O)cc23)nn1)Nc1cccc2ccccc12` : 3.73
